Provenance of the data: paper PMC11062922

# Test system: CDK7
# Set-up: species or system human, MV4-11 + K-562 + COLO205 + SK-N-BE2 + OVCAR-8
# Protocol conditions: read-out: apparent Kd; compound concentrations:100 nM and 1000 nM (sheet 'Samples'); n = 1
Exercise: for every item that follows, state its recorded potency estimated from few doses.
Give bare numbers, in nM.

Observe how each entry below is paired with its result.
COc1ccc(F)cc1C(=O)c1cnc(NC2CCN(S(C)(=O)=O)CC2)nc1N [RO4517872-000]    1460
Cl.Cn1c(=O)c(Cc2ccc(F)cc2F)cc2cnc(NC3CCOCC3)nc21 [RO3308757-001]    331
Cc1ccc2c(-c3ccnc(Nc4ccc(C(F)(F)F)cc4)n3)cnn2n1 [GW819776X]    1750
CN(C)C[C@H]1CCn2c(c(C3=C(c4cn(C)c5ccccc45)C(=O)NC3=O)c3ccccc32)C1 [RO0320432-000]    1010
CS(=O)(=O)CCn1c(=O)c(Oc2ccc(F)cc2F)cc2cnc(NC3CCOCC3)nc21 [RO5027956-000]    349

The following compounds each have a reported value; give each one's potency estimated from few doses.
1. CC(C)N1CCC(n2cnc(-c3ccc(F)cc3)c2-c2ccnc(N)n2)CC1 [SB-223132]
2. COc1cc(F)c(F)c(F)c1C(=O)c1cnc(NC2CCN(S(C)(=O)=O)CC2)nc1N [RO4600703-000]

Output:
[310, 821]
